Exercise: for every item that follows, state its recorded Bliss excess.
system: SNU-C1 (Colorectal Carcinoma); test: Bliss excess, mean over the matrix (fraction); higher = more synergy;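 also: after 72 h of two-drug dosing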
One number for each entry.

Consider the following illustrative entries.
| Molecule | Bliss excess |
| --- | --- |
| CCN(CCO)CCCOc1ccc2c(Nc3cc(CC(=O)Nc4cccc(F)c4)[nH]n3)ncnc2c1 [AZD2811] + C=CCn1c(=O)c2cnc(Nc3ccc(N4CCN(C)CC4)cc3)nc2n1-c1cccc(C(C)(C)O)n1 [AZD1775] (first compound max 1 µM, partner max 1 µM) | -0.0321 |
| O=C(c1cc(Cc2n[nH]c(=O)c3ccccc23)ccc1F)N1CCN(C(=O)C2CC2)CC1 [Olaparib] + CN(CC[C@H](CSC1=CC=CC=C1)NC2=C(C=C(C=C2)S(=O)(=O)NC(=O)C3=CC=C(C=C3)N4CCC(CC4)[C@H](C5=CC=CC=C5C6=CC=C(C=C6)Cl)O)S(=O)(=O)C(F)(F)F)CCO [AZD4320] (first compound max 10 µM, 7x7, partner max 1 µM) | -0.055 |

Attention now turns to another entry.
# input molecule: Cc1c2c(nn1C)CSCc1cc(n(C)n1)CSc1cc(c3ccccc3c1)OCCCc1c(C(=O)O)n(C)c3c-2c(Cl)ccc13 [AZD5991] + C[C@@H](Nc1cc(F)cc(F)c1)c1cc(C(=O)N(C)C)cc2c(=O)cc(N3CCOCC3)oc12 [AZD8186] (first compound max 1 µM, 7x7, partner max 3 µM) ; wanted: its Bliss excess
-0.0148

###

tested on: IMR-5 (Neuroblastoma); experiment: combination Emax (second highest fraction inhibited in the dose matrix, 72 h); higher = more inhibition; extreme values may be limits of the assay
Endpoint Name: combination Emax
Give bare numbers.

In the examples that follow, each entry is paired with its recorded combination Emax.
| Compound | Quantitative Result |
| --- | --- |
| COc1cccc2c1C(=O)c1c(O)c3c(c(O)c1C2=O)C[C@@](O)(C(=O)CO)C[C@@H]3O[C@H]1C[C@H](N)[C@H](O)[C@H](C)O1 [Doxorubicin] + Cc1cc2ncnn2cc1Nc1ncc2c(n1)n(C1CCOCC1)c(=O)n2C [AZD7648] (first compound max 1 µM, 7x7, partner max 10 µM) | 1 |
| CC(=O)c1c(C)c2cnc(Nc3ccc(N4CCNCC4)cn3)nc2n(C2CCCC2)c1=O [Palbociclib] + CN(CC[C@H](CSC1=CC=CC=C1)NC2=C(C=C(C=C2)S(=O)(=O)NC(=O)C3=CC=C(C=C3)N4CCC(CC4)[C@H](C5=CC=CC=C5C6=CC=C(C=C6)Cl)O)S(=O)(=O)C(F)(F)F)CCO [AZD4320] (first compound max 10 µM, 7x7, partner max 1 µM) | 0.949 |
| CC1(C)CCC(CN2CCN(c3ccc(C(=O)NS(=O)(=O)c4ccc(NCC5CCOCC5)c([N+](=O)[O-])c4)c(Oc4cnc5[nH]ccc5c4)c3)CC2)=C(c2ccc(Cl)cc2)C1 [Venetoclax] + CN(C)CCCOc1ccc(-c2ccc3ncc4c(c3c2)n(C2CCOCC2)c(=O)n4C)cn1 [AZD0156] (first compound max 1 µM, 7x7, partner max 1 µM) | 0.0957 |
| Cc1nc(Nc2ncc(C(=O)Nc3c(C)cccc3Cl)s2)cc(N2CCN(CCO)CC2)n1 [Dasatinib] + CC(=O)Nc1cccc(-n2c(=O)n(C3CC3)c(=O)c3c(Nc4ccc(I)cc4F)n(C)c(=O)c(C)c32)c1 [Trametinib] (first compound max 2 µM, 7x7, partner max 1 µM) | 0.19 |
| Cc1cc2ncnn2cc1Nc1ncc2c(n1)n(C1CCOCC1)c(=O)n2C [AZD7648] + CN(C)CCCOc1ccc(-c2ccc3ncc4c(c3c2)n(C2CCOCC2)c(=O)n4C)cn1 [AZD0156] (first compound max 10 µM, 7x7, partner max 1 µM) | 0.239 |
| COc1cccc(OCCCN)c1-c1cc(Nc2cnc(C#N)cn2)n[nH]1 [Prexasertib] + CCc1c2c(nc3ccc(O)cc13)-c1cc3c(c(=O)n1C2)COC(=O)[C@]3(O)CC [SN-38] (first compound max 1 µM, 7x7, partner max 0.3 µM) | 1 |
| CN(C)CCCOc1ccc(-c2ccc3ncc4c(c3c2)n(C2CCOCC2)c(=O)n4C)cn1 [AZD0156] + O=C(c1cc(Cc2n[nH]c(=O)c3ccccc23)ccc1F)N1CCN(C(=O)C2CC2)CC1 [Olaparib] (first compound max 3 µM, partner max 3 µM) | 0.544 |
| C[C@@H](c1ccc2nccn2c1)n1nnc2ncc(-c3cnn(C)c3)nc21 [Savolitinib] + Cc1c2c(nn1C)CSCc1cc(n(C)n1)CSc1cc(c3ccccc3c1)OCCCc1c(C(=O)O)n(C)c3c-2c(Cl)ccc13 [AZD5991] (first compound max 1 µM, 7x7, partner max 1 µM) | 0.645 |

Hi there! I need combination Emax for each item below, if you can.
1. Cc1c2c(nn1C)CSCc1cc(n(C)n1)CSc1cc(c3ccccc3c1)OCCCc1c(C(=O)O)n(C)c3c-2c(Cl)ccc13 [AZD5991] + CN(C)CCCOc1ccc(-c2ccc3ncc4c(c3c2)n(C2CCOCC2)c(=O)n4C)cn1 [AZD0156] (first compound max 1 µM, 7x7, partner max 1 µM)
2. NC1(C(=O)N[C@@H](CCO)c2ccc(Cl)cc2)CCN(c2ncnc3[nH]ccc23)CC1 [Capivasertib] + COc1nnc2ccc(N3CCC(c4ccc(OCCN5CCN(C)C(=O)[C@H]5C)cc4)CC3)nn12 [AZD5153] (first compound max 10 µM, 7x7, partner max 1 µM)
3. Cc1c2c(nn1C)CSCc1cc(n(C)n1)CSc1cc(c3ccccc3c1)OCCCc1c(C(=O)O)n(C)c3c-2c(Cl)ccc13 [AZD5991] + Cn1cnc2c(F)c(Nc3ccc(Br)cc3Cl)c(C(=O)NOCCO)cc21 [Selumetinib] (first compound max 1 µM, 7x7, partner max 3 µM)
4. CC1(C)CCC(CN2CCN(c3ccc(C(=O)NS(=O)(=O)c4ccc(NCC5CCOCC5)c([N+](=O)[O-])c4)c(Oc4cnc5[nH]ccc5c4)c3)CC2)=C(c2ccc(Cl)cc2)C1 [Venetoclax] + C1CN(CCC1(C(=O)N[C@@H](CCO)C2=CC=C(C=C2)Cl)N)C3=NC=NC4=C3C=CN4 [Capivasertib] (first compound max 1 µM, 7x7, partner max 3 µM)
5. COc1nnc2ccc(N3CCC(c4ccc(OCCN5CCN(C)C(=O)[C@H]5C)cc4)CC3)nn12 [AZD5153] + C[C@@H]1COCCN1C2=NC(=NC(=C2)C3(CC3)[S@](=N)(=O)C)C4=C5C=CNC5=NC=C4 [AZD6738] (first compound max 1 µM, 7x7, partner max 10 µM)

1: 0.985; 2: 0.857; 3: 0.983; 4: 0.19; 5: 1

###

tested on: NH-12 (Neuroblastoma); experiment: combination Emax (second highest fraction inhibited in the dose matrix, 72 h); higher = more inhibition; extreme values may be limits of the assay
Please respond with reported combination Emax for every item in the list.

Below are worked cases with known answers.
| Compound | Target Desc | combination Emax |
| --- | --- | --- |
| CC1(C)CCC(CN2CCN(c3ccc(C(=O)NS(=O)(=O)c4ccc(NCC5CCOCC5)c([N+](=O)[O-])c4)c(Oc4cnc5[nH]ccc5c4)c3)CC2)=C(c2ccc(Cl)cc2)C1 [Venetoclax] + CN(C)CCCOc1ccc(-c2ccc3ncc4c(c3c2)n(C2CCOCC2)c(=O)n4C)cn1 [AZD0156] (first compound max 1 µM, 7x7, partner max 1 µM) | NH-12 (Neuroblastoma) | 0.483 |
| Cc1cc2ncnn2cc1Nc1ncc2c(n1)n(C1CCOCC1)c(=O)n2C [AZD7648] + CCN(CCO)CCCOc1ccc2c(Nc3cc(CC(=O)Nc4cccc(F)c4)[nH]n3)ncnc2c1 [AZD2811] (first compound max 10 µM, 7x7, partner max 1 µM) | NH-12 (Neuroblastoma) | 0.667 |
| C=CCn1c(=O)c2cnc(Nc3ccc(N4CCN(C)CC4)cc3)nc2n1-c1cccc(C(C)(C)O)n1 [AZD1775] + O=C(c1cc(Cc2n[nH]c(=O)c3ccccc23)ccc1F)N1CCN(C(=O)C2CC2)CC1 [Olaparib] (first compound max 1 µM, partner max 10 µM) | NH-12 (Neuroblastoma) | 0.906 |
| Cn1cnc2c(F)c(Nc3ccc(Br)cc3Cl)c(C(=O)NOCCO)cc21 [Selumetinib] + CC(C)n1c(=O)n(C)c2cnc3cc(F)c(-c4ccc(OCCCN5CCCCC5)nc4)cc3c21 [AZD1390] (first compound max 10 µM, 7x7, partner max 0.3 µM) | NH-12 (Neuroblastoma) | 0.482 |
| COc1nnc2ccc(N3CCC(c4ccc(OCCN5CCN(C)C(=O)[C@H]5C)cc4)CC3)nn12 [AZD5153] + CN(CC[C@H](CSC1=CC=CC=C1)NC2=C(C=C(C=C2)S(=O)(=O)NC(=O)C3=CC=C(C=C3)N4CCC(CC4)[C@H](C5=CC=CC=C5C6=CC=C(C=C6)Cl)O)S(=O)(=O)C(F)(F)F)CCO [AZD4320] (first compound max 1 µM, 7x7, partner max 1 µM) | NH-12 (Neuroblastoma) | 0.91 |

Look at each compound and report its combination Emax.
1. CN(C)CCCOc1ccc(-c2ccc3ncc4c(c3c2)n(C2CCOCC2)c(=O)n4C)cn1 [AZD0156] + C=CCn1c(=O)c2cnc(Nc3ccc(N4CCN(C)CC4)cc3)nc2n1-c1cccc(C(C)(C)O)n1 [AZD1775] (first compound max 1 µM, partner max 1 µM)
2. CC1(C)CCC(CN2CCN(c3ccc(C(=O)NS(=O)(=O)c4ccc(NCC5CCOCC5)c([N+](=O)[O-])c4)c(Oc4cnc5[nH]ccc5c4)c3)CC2)=C(c2ccc(Cl)cc2)C1 [Venetoclax] + Cc1cc2ncnn2cc1Nc1ncc2c(n1)n(C1CCOCC1)c(=O)n2C [AZD7648] (first compound max 1 µM, 7x7, partner max 10 µM)

1: 0.877; 2: 0.538

Just for reference, the supplement of paper PMC11061612 is where these values come from.
